Tested on: human APOE RNA
measurement_protocol: Activity in APOE C57BL/6NTac-Apoeem7250 knock-in mice, single ICV bolus, 16 weeks (Example 12)
Format: in vivo
condition_set: cortex; single ICV bolus 300 μg; 16 weeks post treatment; normalized to mouse Ppia
Strand notation (5' to 3'): a small letter for the sugar, then the base; units joined by * are phosphorothioate-linked, units joined directly phosphodiester-linked; [ ] holds rarer units or linkages, { } end groups; capitals alone tell only the bases. [ms] = mesyl phosphoramidate linkage; e = 2'-O-(2-methoxyethyl) (MOE); k = constrained ethyl (cEt); [5mC] = 5-methylcytosine; d = 2'-deoxy (DNA)
experimental_readout: APOE RNA (% control) Cortex
Your answer is read as % control, so omit the unit and give the number.

substance="1693046: 5-10-5 MOE gapmer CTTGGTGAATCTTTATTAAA, linkages ssssszzzzzsssssssss (antisense e[5mC]*eT*eT*eG*eG*dT[ms]dG[ms]dA[ms]dA[ms]dT[ms]d[5mC]*dT*dT*dT*dA*eT*eT*eA*eA*eA) [compound 1693046]" unit_of_measurement="% control" observed_value=106

Specify measured APOE RNA (% control) Cortex for 1693071: 5-10-5 MOE gapmer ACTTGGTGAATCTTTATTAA, linkages ssssssszzzzzsssosss (antisense eA*e[5mC]*eT*eT*eG*dG*dT*dG[ms]dA[ms]dA[ms]dT[ms]d[5mC][ms]dT*dT*dT*eAeT*eT*eA*eA) [compound 1693071] .
68

Hello, please tell me recorded APOE RNA (% control) Cortex for this one: 1785600 (k[5mC]*kT*kT*dG[ms]dG[ms]dT[ms]dG*dA*dA*dT*d[5mC]*dT[ms]dT[ms]dT[ms]dA*dT*kT*kA*dA[ms]kA; antisense) [Compound 1785600]
39

Note down APOE RNA (% control) Cortex recorded for 1693084: 6-10-4 MOE gapmer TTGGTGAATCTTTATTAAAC, linkages ssssszzzszsszzsssss (eT*eT*eG*eG*eT*eG[ms]dA[ms]dA[ms]dT*d[5mC][ms]dT*dT*dT[ms]dA[ms]dT*dT*eA*eA*eA*e[5mC]) [compound 1693084]
89
